src = patent US20230174485A1

# MEASUREMENT TARGET: recombinant 5-LOX (Homo sapiens)
# METHOD SUMMARY: 5-LOX fluorescent assay
# Assay type: biochemical
# MEASUREMENT PARAMETERS: several values in one cell = repeat determinations; read-out: IC50 (μM) values for in vitro lipoxygenase inhibition, 5-LOX
Structures can show the parent of a compound that is named as a salt.
PROPERTY LABEL: IC50 (µM)

Some molecules with known IC50 results, for comparison:
MOLECULE: c1ccc(-c2cc(NCCCn3cncn3)cc3c2[nH]c2ccccc23)cc1
IC50, µM: 20.3
//
MOLECULE: CN(C)CCOc1cc2c3ncccc3[nH]c2c2c1[nH]c1cccnc12
IC50, µM: 9.17
//
MOLECULE: CN(C)CCC(c1ccccc1)c1ccc2[nH]c3ccccc3c2c1 (centres unmarked)
IC50, µM: 5.01

[a] CN(C)CCCNc1ccc2c(c1)Nc1ccccc1CC2
[b] CN(C)CCOc1c(-c2ccccc2N)ccc2c1[nH]c1ccccc12 [SS20308-0073-01, dihydrochloride]
Between the entries labelled a and b , which has a larger IC50 value on record? Your answer should be the label attached to the chosen record.
b
(b: 14.4 µM, a: 0.15 µM)

---

# MEASUREMENT TARGET: recombinant 12-LOX enzyme (Homo sapiens, UniProt P18054)
# Sequence (P18054 whole entry): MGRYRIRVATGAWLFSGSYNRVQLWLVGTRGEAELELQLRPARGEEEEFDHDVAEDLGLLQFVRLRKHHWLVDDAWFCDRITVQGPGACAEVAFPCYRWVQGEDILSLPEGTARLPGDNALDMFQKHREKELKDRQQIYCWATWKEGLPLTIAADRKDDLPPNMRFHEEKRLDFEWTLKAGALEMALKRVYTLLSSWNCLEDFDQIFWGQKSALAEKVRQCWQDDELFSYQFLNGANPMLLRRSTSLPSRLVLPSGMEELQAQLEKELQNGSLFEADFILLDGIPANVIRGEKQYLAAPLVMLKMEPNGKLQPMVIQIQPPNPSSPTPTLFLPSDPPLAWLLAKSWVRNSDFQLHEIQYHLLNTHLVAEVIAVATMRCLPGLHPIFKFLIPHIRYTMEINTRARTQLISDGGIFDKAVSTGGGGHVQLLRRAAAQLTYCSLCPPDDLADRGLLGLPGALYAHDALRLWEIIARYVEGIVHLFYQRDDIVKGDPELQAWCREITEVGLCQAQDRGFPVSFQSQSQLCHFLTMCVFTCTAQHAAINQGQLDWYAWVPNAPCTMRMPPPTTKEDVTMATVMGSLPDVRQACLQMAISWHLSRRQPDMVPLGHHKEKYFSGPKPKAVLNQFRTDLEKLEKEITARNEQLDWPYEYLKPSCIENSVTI
# METHOD SUMMARY: 12-LOX fluorescent assay
# Type: biochemical
# MEASUREMENT PARAMETERS: several values in one cell = repeat determinations; read-out: IC50 (μM) values for in vitro lipoxygenase inhibition, 12-LOX
PROPERTY LABEL: IC50 (µM)

COMPOUND: c1ccc2c(c1)CCc1ccc(NCCCN3CCOCC3)cc1N2 [SS20308-0303-01]
UNIT LABEL: µM
IC50: 0.09
//
COMPOUND: CN(C)CCCn1c2c(c3ccccc31)CC(Nc1ccccc1)CC2 (stereo not drawn) [SS20308-0159-01]
UNIT LABEL: µM
IC50: 2.75
//
COMPOUND: c1ccc2c(c1)CCc1cc(C3CC3)c(NCCn3cncn3)cc1N2 [SS20308-0269-01]
UNIT LABEL: µM
IC50: 0.11

[a] Fc1cccc2c1[nH]c1cc3c(cc12)CCN3CCn1cncn1 [SS20308-0243-01]
[b] Fc1ccc2[nH]c3cc4c(cc3c2c1)CCN4CCn1cncn1 [SS20308-0208-01]
Between the entries labelled a and b , which has a larger IC50 value on record? Your answer should be the label attached to the chosen record.
a
(a: 0.03 µM, b: 0.01 µM)

[P] COc1c2[nH]c(-c3ccccc3)nc2c(F)c2c1[nH]c1ccccc12 [SS20308-0137-01]
[Q] CN(C)CCOc1c(-c2ccccc2[N+](=O)[O-])ccc2c1[nH]c1ccccc12 [SS20308-0077-01]
Given the listed items, does P or Q have the lesser reported IC50? Your answer should be the label attached to the chosen record.
P

[I] CN(CCn1cncn1)c1cc2c(cc1-c1ccccc1)[nH]c1ccc(F)cc12 [SS20308-0182-01]
[II] CN(C)CCC(c1ccccc1)c1ccc2[nH]c3ccccc3c2c1 (stereo not drawn) [SS20308-0183-01]
Given the listed items, does I or II have the lesser reported IC50? Your answer should be the label attached to the chosen record.
I

---

# MEASUREMENT TARGET: recombinant 5-LOX (Homo sapiens)
# Sequence (P09917 1-674): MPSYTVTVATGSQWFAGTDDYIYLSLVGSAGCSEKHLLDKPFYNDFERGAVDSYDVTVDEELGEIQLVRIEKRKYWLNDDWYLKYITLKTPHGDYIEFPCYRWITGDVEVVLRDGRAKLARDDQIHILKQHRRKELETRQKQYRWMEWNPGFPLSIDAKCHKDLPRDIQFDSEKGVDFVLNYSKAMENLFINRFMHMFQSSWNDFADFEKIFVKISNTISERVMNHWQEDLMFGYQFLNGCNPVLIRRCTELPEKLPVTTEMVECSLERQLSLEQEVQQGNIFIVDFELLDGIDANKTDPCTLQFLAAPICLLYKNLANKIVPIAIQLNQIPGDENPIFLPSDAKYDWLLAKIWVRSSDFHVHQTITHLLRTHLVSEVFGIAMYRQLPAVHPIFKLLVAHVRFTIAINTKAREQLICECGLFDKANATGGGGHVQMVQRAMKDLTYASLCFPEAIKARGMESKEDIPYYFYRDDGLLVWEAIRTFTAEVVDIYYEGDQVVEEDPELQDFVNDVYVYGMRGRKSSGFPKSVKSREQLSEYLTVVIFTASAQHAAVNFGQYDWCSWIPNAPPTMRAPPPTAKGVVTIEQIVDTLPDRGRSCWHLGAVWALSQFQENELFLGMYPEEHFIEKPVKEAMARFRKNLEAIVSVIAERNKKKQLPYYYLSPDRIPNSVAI
# METHOD SUMMARY: 5-LOX fluorescent assay
# Format: biochemical
# MEASUREMENT PARAMETERS: several values in one cell = repeat determinations; read-out: IC50 (μM) values for in vitro lipoxygenase inhibition, 5-LOX
PROPERTY LABEL: IC50 (µM)

LINE NOTATION: CN(C)CCCc1cc(-c2cccc3c2NCC3)cc2[nH]c3ccccc3c12
UNIT LABEL: µM
IC50: 4.38

[1] c1ccc2c(c1)CCc1ccc(NCCn3cncn3)cc1N2
[2] Cc1cc(OCCn2cncn2)c2[nH]c3ccccc3c2c1
[3] CN(C)CCOc1c(N)cc(Cl)c2c1[nH]c1ccc(F)cc12
[4] COc1ccc2c([nH]c3ccc(F)cc32)c1CCCN(C)C
Sort low-to-high on IC50, please. // list labels; follow requested order
1, 2, 3, 4
(1: 0.22 µM, 2: 6.06 µM, 3: 14.8 µM, 4: 23.2 µM)

[a] c1ccc2c(c1)CCc1cc(C3CCOCC3)c(NCCn3cncn3)cc1N2
[b] CN(C)CCCc1c(O)ccc2c1[nH]c1ccc(F)cc12
Between the entries labelled a and b , which has a larger IC50 value on record? Your answer should be the label attached to the chosen record.
b

[P] Fc1c(NCC2(Cn3cncn3)COC2)ccc2[nH]c3ccccc3c12
[Q] Fc1cccc2c1[nH]c1cc3c(cc12)CCN3CCn1cncn1
Given the listed items, does P or Q have the lesser reported IC50? Your answer should be the label attached to the chosen record.
P
(P: 0.09 µM, Q: 0.2 µM)

---

# MEASUREMENT TARGET: recombinant 15-LOX enzyme (Homo sapiens, UniProt P16050)
# Sequence (P16050 whole entry, species assumed): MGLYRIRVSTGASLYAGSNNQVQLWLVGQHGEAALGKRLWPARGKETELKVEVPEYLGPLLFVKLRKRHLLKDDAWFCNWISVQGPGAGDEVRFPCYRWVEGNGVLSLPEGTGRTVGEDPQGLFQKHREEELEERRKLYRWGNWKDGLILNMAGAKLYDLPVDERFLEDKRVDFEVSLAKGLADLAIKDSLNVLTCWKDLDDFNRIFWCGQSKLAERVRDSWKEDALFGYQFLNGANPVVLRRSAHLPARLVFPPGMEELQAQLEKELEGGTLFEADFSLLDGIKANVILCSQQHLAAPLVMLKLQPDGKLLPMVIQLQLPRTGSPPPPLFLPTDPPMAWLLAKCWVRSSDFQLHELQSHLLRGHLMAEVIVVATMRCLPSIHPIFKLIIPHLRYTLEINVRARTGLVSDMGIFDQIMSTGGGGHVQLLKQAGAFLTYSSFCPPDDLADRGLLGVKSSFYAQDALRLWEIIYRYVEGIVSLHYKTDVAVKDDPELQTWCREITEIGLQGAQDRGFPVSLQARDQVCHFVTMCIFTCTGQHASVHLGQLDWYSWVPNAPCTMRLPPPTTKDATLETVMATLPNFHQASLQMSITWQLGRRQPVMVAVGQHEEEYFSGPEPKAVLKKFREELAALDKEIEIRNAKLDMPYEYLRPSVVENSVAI
# METHOD SUMMARY: 15-LOX fluorescent assay
# Format: biochemical
# MEASUREMENT PARAMETERS: IC50 (μM) values for in vitro lipoxygenase inhibition, 15-LOX, several values in one cell = repeat determinations
Where a name gives a salt, the structure may show the parent alone.
PROPERTY LABEL: IC50 (µM)

MOLECULE: COc1ccc2c([nH]c3ccc(F)cc32)c1CCCN(C)C
MEAS VALUE: 26.9

[a] CN(C)C/C=C\c1c2[nH]c3ccccc3c2cc2[nH]c3ccccc3c12
[b] CN(C)CCOc1c2nc(-c3ccccc3)[nH]c2cc2[nH]c3ccccc3c12
[c] Fc1ccc2[nH]c3c(OCCn4cncn4)cc(Oc4ccccc4)cc3c2c1
[d] CN(C)CCOc1c(-c2ccccc2N)ccc2c1[nH]c1ccccc12 [SS20308-0073-01, dihydrochloride]
[e] COc1ccc2c([nH]c3ccc(F)cc32)c1OCCN(C)C
// ranking: key=IC50, reverse=True // list labels; follow requested order
d, e, c, b, a

---

# MEASUREMENT TARGET: recombinant 5-LOX (Homo sapiens)
# Sequence (P09917 1-674): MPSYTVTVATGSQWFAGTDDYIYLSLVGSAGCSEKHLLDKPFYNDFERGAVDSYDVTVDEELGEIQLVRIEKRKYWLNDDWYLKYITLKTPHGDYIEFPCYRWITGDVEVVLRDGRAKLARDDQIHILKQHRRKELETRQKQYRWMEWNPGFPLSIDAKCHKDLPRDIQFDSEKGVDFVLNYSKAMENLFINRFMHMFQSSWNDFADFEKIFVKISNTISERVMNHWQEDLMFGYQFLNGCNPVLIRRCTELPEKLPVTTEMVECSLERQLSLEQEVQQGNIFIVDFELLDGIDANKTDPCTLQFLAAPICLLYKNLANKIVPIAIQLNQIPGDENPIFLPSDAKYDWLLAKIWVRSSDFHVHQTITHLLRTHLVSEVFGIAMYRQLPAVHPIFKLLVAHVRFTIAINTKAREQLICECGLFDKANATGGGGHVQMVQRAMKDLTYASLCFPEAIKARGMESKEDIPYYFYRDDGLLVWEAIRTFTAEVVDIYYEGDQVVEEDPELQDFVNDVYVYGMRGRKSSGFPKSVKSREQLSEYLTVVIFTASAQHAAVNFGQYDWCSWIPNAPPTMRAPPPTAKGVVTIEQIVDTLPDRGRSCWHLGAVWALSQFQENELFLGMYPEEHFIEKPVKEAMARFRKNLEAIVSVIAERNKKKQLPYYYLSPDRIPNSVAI
# METHOD SUMMARY: 5-LOX fluorescent assay
# Format: biochemical
# MEASUREMENT PARAMETERS: several values in one cell = repeat determinations; read-out: IC50 (μM) values for in vitro lipoxygenase inhibition, 5-LOX
PROPERTY LABEL: IC50 (µM)

[A] CN(C)CCOc1c2[nH]c(-c3ccccc3)nc2c(F)c2c1[nH]c1ccccc12 [SS20308-0121-01]
[B] Fc1ccc2[nH]c3c(NCCn4cncn4)c(-c4ccccc4)ccc3c2c1 [SS20308-0154-01]
[C] COc1cccc2c1[nH]c1ccc(F)cc12 [SS20308-0002-01, 6-fluoro-1-methoxy-9H-carbazole]
[D] CN(C)CCOc1c(Nc2ccccc2)ccc2c1[nH]c1ccc(F)cc12 [SS20308-0032-01]
[E] CN(C)CCCn1c2c(c3ccccc31)CC(Nc1ccccc1)CC2 (stereo not shown) [SS20308-0159-01]
Falling order of IC50, please. // list labels; follow requested order
C, E, B, A, D
